- TEST_SYSTEM: Neprilysin (Homo sapiens)
- Sequence (P08473 whole entry): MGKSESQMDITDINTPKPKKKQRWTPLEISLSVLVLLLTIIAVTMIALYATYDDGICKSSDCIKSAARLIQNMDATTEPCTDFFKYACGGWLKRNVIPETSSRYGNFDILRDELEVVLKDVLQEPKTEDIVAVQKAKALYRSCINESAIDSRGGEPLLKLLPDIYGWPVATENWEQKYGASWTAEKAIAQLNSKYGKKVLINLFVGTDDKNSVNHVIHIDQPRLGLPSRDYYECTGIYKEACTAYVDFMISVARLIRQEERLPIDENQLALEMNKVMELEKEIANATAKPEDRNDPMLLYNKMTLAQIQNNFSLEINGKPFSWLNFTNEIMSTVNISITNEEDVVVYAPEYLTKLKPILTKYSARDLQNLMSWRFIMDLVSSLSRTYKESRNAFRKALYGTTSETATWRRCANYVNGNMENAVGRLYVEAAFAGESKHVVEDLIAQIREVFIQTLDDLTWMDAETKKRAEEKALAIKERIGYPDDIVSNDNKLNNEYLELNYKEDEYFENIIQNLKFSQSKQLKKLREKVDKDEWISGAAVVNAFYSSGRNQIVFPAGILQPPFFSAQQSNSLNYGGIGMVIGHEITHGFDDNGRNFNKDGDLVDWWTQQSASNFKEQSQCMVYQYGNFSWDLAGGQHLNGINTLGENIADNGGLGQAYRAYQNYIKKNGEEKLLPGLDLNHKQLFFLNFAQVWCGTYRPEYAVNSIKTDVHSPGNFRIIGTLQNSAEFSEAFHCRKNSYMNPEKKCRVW

COMPOUND: N[C@@H](CC(=O)N1CCn2c(nnc2C(F)(F)F)C1)Cc1cc(F)c(F)cc1F [SITAGLIPTIN]
IC50: > 100 µM

###

- MEASUREMENT_DESCRIPTION: Plasma protein binding in mouse
- Assay type: ADME, cell-free
- MEASUREMENT_SETUP: read-out: PPB (converted)
# cutoff 0.1 applies to fraction unbound; >= gives 1, < gives -1

MOLECULE: CCC[C@H](N[C@@H](CCc1ccccc1)C(=O)O)C(=O)N1C[C@@H](NC(=O)C[C@H](N)Cc2cc(F)c(F)cc2F)C[C@H]1C(=O)O
CATEGORY_LABEL: -1

MOLECULE: C[C@H](N[C@@H](CCc1ccccc1)C(=O)O)C(=O)N1CCC[C@H]1C(=O)O [ENALAPRILAT ANHYDROUS]
CATEGORY_LABEL: 1

MOLECULE: C[C@H](N[C@@H](CCc1ccccc1)C(=O)O)C(=O)N1C[C@@H](NC(=O)C[C@H](N)Cc2cc(F)c(F)cc2F)C[C@H]1C(=O)O
CATEGORY_LABEL: 1

MOLECULE: N[C@@H](CC(=O)N1CCn2c(nnc2C(F)(F)F)C1)Cc1cc(F)c(F)cc1F
CATEGORY_LABEL: 1

MOLECULE: CCCC[C@H](N[C@@H](CCc1ccccc1)C(=O)O)C(=O)N1C[C@@H](NC(=O)C[C@H](N)Cc2cc(F)c(F)cc2F)C[C@H]1C(=O)O
CATEGORY_LABEL: -1

MOLECULE: CC[C@H](N[C@@H](CCc1ccccc1)C(=O)O)C(=O)N1C[C@@H](NC(=O)C[C@H](N)Cc2cc(F)c(F)cc2F)C[C@H]1C(=O)O
CATEGORY_LABEL: 1

Where these numbers come from: ChEMBL document CHEMBL4020733
